system: Phytophthora infestans; assay type: in vivo, Phytophthora infestans on tomato; conditions: hydrazone 50 ppm + 50 μM CuCl2.2H2O, applied 24 h before inoculation, assessed 7 days after inoculation, tomato
Assign Y whenever TLB % Control does not fall below 70%; assign N whenever it does.

>  <compound>
COc1ccc(/C(C)=N/NC(=O)c2ccccc2C)c(O)c1 [Example 281]

>  <label class>
N

$$$$
>  <compound>
O=C(N/N=C/c1cc(Br)cc(Br)c1O)c1ccc2ccccc2c1 [Example 111]

>  <label class>
N

$$$$
>  <compound>
O=C(N/N=C/c1cc(Cl)cc(Br)c1O)c1ccccc1 [Example 151]

>  <label class>
Y

$$$$
>  <compound>
COc1cccc(C(=O)N/N=C/c2cc(Br)ccc2O)c1C [Example 105]

>  <label class>
Y

$$$$
>  <compound>
COc1cccc(C(=O)N/N=C/c2cc(Cl)ccc2O)c1 [Example 188]

>  <label class>
Y

$$$$
>  <compound>
C/C(=N\NC(=O)c1cccc(Cl)c1)c1ccc(Cl)cc1O [Example 256]

>  <label class>
N

$$$$
>  <compound>
Nc1ccccc1C(=O)N/N=C/c1cc(Cl)cc(Cl)c1O [Example 91]

>  <label class>
N

$$$$
>  <compound>
COc1ccc(/C(C)=N/NC(=O)c2ccc(C)cc2)c(O)c1 [Example 283]

>  <label class>
N

$$$$
>  <compound>
O=C(N/N=C/c1ccc(Cl)cc1O)c1ccccc1 [Example 233]

>  <label class>
Y

$$$$
>  <compound>
CC/C(=N\NC(=O)c1ccccc1)c1ccccc1O [Example 130]

>  <label class>
N

$$$$
>  <compound>
O=C(N/N=C/c1cc(Cl)cc(Cl)c1O)c1ccccc1[N+](=O)[O-] [Example 96]

>  <label class>
Y

$$$$
>  <compound>
COc1cccc(C(=O)N/N=C/c2cc(Cl)cc(Cl)c2O)c1 [Example 82]

>  <label class>
N

$$$$
>  <compound>
O=C(N/N=C/c1cc(Cl)cc(Cl)c1O)c1ccccc1Br [Example 84]

>  <label class>
Y

$$$$
>  <compound>
COc1cccc(O)c1/C=N/NC(=O)c1ccccc1 [Example 237]

>  <label class>
N

$$$$
>  <compound>
O=C(N/N=C/c1cc(Cl)cc(Cl)c1O)c1cccc(Br)c1 [Example 71]

>  <label class>
Y

$$$$
>  <compound>
COc1ccc(O)c(/C(C)=N/NC(=O)c2ccccc2Cl)c1 [Example 265]

>  <label class>
N

$$$$
>  <compound>
COc1ccc(/C(C)=N/NC(=O)c2ccc(Cl)cc2)c(O)c1 [Example 286]

>  <label class>
Y

$$$$
>  <compound>
O=C(N/N=C/c1cc(C(F)(F)F)cc(Cl)c1O)c1ccccc1 [Example 275]

>  <label class>
Y

$$$$
>  <compound>
COc1cc(Br)cc(/C=N/NC(=O)c2cccc(Br)c2)c1O [Example 204]

>  <label class>
Y

$$$$
>  <compound>
COc1ccc(/C=N/NC(=O)c2ccc(Cl)cc2)c(O)c1 [Example 200]

>  <label class>
Y

$$$$
>  <compound>
C/C(=N\NC(=O)c1ccccc1C)c1cc(Cl)cc(Cl)c1O [Example 137]

>  <label class>
Y

$$$$
>  <compound>
O=C(N/N=C(\CCc1ccccc1)c1ccccc1O)c1ccccc1Cl [Example 49]

>  <label class>
N

$$$$
>  <compound>
CCOc1ccc(C(=O)N/N=C/c2ccccc2O)cc1 [Example 21]

>  <label class>
N

$$$$
>  <compound>
COc1cccc(C(=O)N/N=C/c2cc(Br)ccc2O)c1 [Example 185]

>  <label class>
N

$$$$
>  <compound>
C/C(=N\NC(=O)c1ccccc1)c1ccc(Cl)cc1O [Example 251]

>  <label class>
N

$$$$
>  <compound>
Cc1ccc(C(=O)N/N=C/c2cc([N+](=O)[O-])cc(Br)c2O)cc1 [Example 202]

>  <label class>
N

$$$$
>  <compound>
C/C(=N\NC(=O)c1ccc(Cl)cc1Cl)c1ccccc1O [Example 216]

>  <label class>
N

$$$$
>  <compound>
Cc1ccc(C(=O)N/N=C/c2cc(Br)ccc2O)cc1 [Example 179]

>  <label class>
N

$$$$

Values were extracted from patent US20120010075A1.
